System: Streptococcus pneumoniae
EXPERIMENT: Antibacterial activity against erythromycin-resistant Streptococcus pneumoniae AB11 expressing erm and mef gene by the broth microdilution method
Assay type: functional
QUANTITY KIND: MIC

compound_string=CC[C@H]1OC(=O)[C@H](C)[C@@H](O[C@H]2C[C@@](C)(OC)[C@@H](OC(=O)NCCNC(=O)c3ccc(OC)c(OC)c3)[C@H](C)O2)[C@H](C)[C@@H](O[C@@H]2O[C@H](C)C[C@H](N(C)C)[C@H]2O)[C@](C)(O)C[C@@H](C)CN(C)[C@H](C)[C@H]2OC(=O)O[C@@]21C target_entity="Streptococcus pneumoniae" observed_result="64 µg/mL"
compound_string=CC[C@H]1OC(=O)[C@H](C)[C@@H](O[C@H]2C[C@@](C)(OC)[C@@H](OC(=O)NNC(=O)c3ccc(Cl)cc3)[C@H](C)O2)[C@H](C)[C@@H](O[C@@H]2O[C@H](C)C[C@H](N(C)C)[C@H]2O)[C@](C)(O)C[C@@H](C)CN(C)[C@H](C)[C@H]2OC(=O)O[C@@]21C target_entity="Streptococcus pneumoniae" observed_result="64 µg/mL"
compound_string=CC[C@H]1OC(=O)[C@H](C)[C@@H](O[C@H]2C[C@@](C)(OC)[C@@H](OC(=O)NNC(=O)c3ccc([N+](=O)[O-])cc3)[C@H](C)O2)[C@H](C)[C@@H](O[C@@H]2O[C@H](C)C[C@H](N(C)C)[C@H]2O)[C@](C)(O)C[C@@H](C)CN(C)[C@H](C)[C@H]2OC(=O)O[C@@]21C target_entity="Streptococcus pneumoniae" observed_result="32 µg/mL"
